system: NCI-H2342; assay: relative viability (nuclei count vs DMSO), 5 days (fraction); higher = more cells survive; settings: first compound 0.005 µM
experimental_endpoint: relative viability

>>> measured_value("CC1(C)CCC(c2ccc(Cl)cc2)=C(CN2CCN(c3ccc(C(=O)NS(=O)(=O)c4ccc(N[C@H](CCN5CCOCC5)CSc5ccccc5)c(S(=O)(=O)C(F)(F)F)c4)cc3)CC2)C1 [Navitoclax] + Nc1ncn([C@H]2C[C@H](O)[C@@H](CO)O2)c(=O)n1 [Decitabine] (partner 2 µM)")
0.799
>>> measured_value("CC1(C)CCC(c2ccc(Cl)cc2)=C(CN2CCN(c3ccc(C(=O)NS(=O)(=O)c4ccc(N[C@H](CCN5CCOCC5)CSc5ccccc5)c(S(=O)(=O)C(F)(F)F)c4)cc3)CC2)C1 [Navitoclax] + CC(=O)Nc1cccc(-n2c(=O)n(C3CC3)c(=O)c3c(Nc4ccc(I)cc4F)n(C)c(=O)c(C)c32)c1 [Trametinib] (partner 0.02 µM)")
0.8
>>> measured_value("CC1(C)CCC(c2ccc(Cl)cc2)=C(CN2CCN(c3ccc(C(=O)NS(=O)(=O)c4ccc(N[C@H](CCN5CCOCC5)CSc5ccccc5)c(S(=O)(=O)C(F)(F)F)c4)cc3)CC2)C1 [Navitoclax] + COc1cccc2cc(-c3nc([C@H]4CC[C@H](C(=O)O)CC4)n4ncnc(N)c34)[nH]c12 [OSI-027] (partner 0.5 µM)")
0.579
>>> measured_value("CC1(C)CCC(c2ccc(Cl)cc2)=C(CN2CCN(c3ccc(C(=O)NS(=O)(=O)c4ccc(N[C@H](CCN5CCOCC5)CSc5ccccc5)c(S(=O)(=O)C(F)(F)F)c4)cc3)CC2)C1 [Navitoclax] + COc1cc2c(Oc3ccc(NC(=O)C4(C(=O)Nc5ccc(F)cc5)CC4)cc3F)ccnc2cc1OCCCN1CCOCC1 [Foretinib] (partner 0.25 µM)")
1.19
